Test system: SR
Assay: NCI tumour cell line growth inhibition, 48 h
Active and inactive are the calls of the source. Cut-off read from the data, not from the text of the source: active = GI50 up to about 1.1 µM and inactive = higher.
Valid outcomes are listed here; reply with one: active, inactive

Here's what some known entries look like.
Dear all, I need the recorded test outcome for CSc1nc(NCc2ccccc2)c2cnn(COCCO)c2n1 , thank you.
inactive

Here is the next molecule: CC1(Cl)C(=O)NC(=O)N([C@H]2C[C@H](O)[C@@H](CO)O2)C1N=[N+]=[N-] (some centres undefined)
inactive

Here is the next molecule: Cn1nc2ccc3nccc(N(CCO)CCO)c3c2n1
inactive

Here is the next molecule: COc1cc(OC)c(OC)cc1/C=C\c1ccnc2ccccc12
active

Here is the next molecule: O=C1/C(=C/c2ccccc2)CCc2ccc([N+](=O)[O-])cc21
inactive

Others:
Dear all, I need the recorded test outcome for CCN(CC)CCC(=O)Nc1ccc2c(c1)C(=O)c1ccc(NC(=O)CCN(CC)CC)cc1C2=O , thank you.
inactive

Here is the next molecule: CC(=O)Oc1ccc(O)c(O)c1C/C=C(\C)CC/C=C(\C)CC/C=C(\C)CCC=C(C)C
active

Here is the next molecule: CCOc1cc(C2CC(c3ccc(NS(=O)(=O)c4cc([N+](=O)[O-])ccc4C)cc3)=NN2)ccc1O (centres undefined)
inactive

Here is the next molecule: C[C@]12CC[C@H]3[C@@H](CCC4=C(Br)C(=O)C=C[C@@]43O)[C@@H]1CCC2=O
inactive
